binders and their reported koff
molecular target: T1, biotinylated recombinant human FAP (human, UniProt Q12884 27-760, biotinylated); assay: SPR (Biacore)
T1 construct: the Biacore paragraphs only say biotinylated (recombinant) human FAP; also called biotinylated human FAP; recombinant huFAP
Supply the numeric figure in s⁻¹, leaving out any unit text.

Quick check: koff of P1AE1702_Fab, humanized anti-FAP Fab VH2G2a/VL2G2a (Fab, V domains shown) VH: EVQLLESGGGLVQPGGSLRLSCAASGYTLTDYNMDWVRQAPGKGLEWVGDIYPNTGGTIYNQKFKGRFTISIDKSKNTAYLQMNSLRAEDTAVYYCTRFRGIHYAMDYWGQGTTVTVSS VL: DIQMTQSPSSLSASVGDRVTITCRASESVDNYGLSFINWFQQKPGQPPKLLIYGTSNRGSGVPSRFSGSGSGTDFTLTISSLQPEDFAMYFCQQSNEVPYTFGGGTKVEIK ?
0.000107

Continuing:
Quick check: koff of P1AE1693_Fab, humanized anti-FAP Fab VH1G2a/VL1G2a (Fab, V domains shown) VH: QVQLVQSGAEVKKPGASVKVSCKASGYTLTDYNMDWVRQAPGKSLEWIGDIYPNTGGTIYNQKFKGRVTMTIDKSTSTVYMELSSLRSEDTAVYYCTRFRGIHYAMDYWGQGTTVTVSS VL: EIVLTQSPATLSLSPGERATLSCRASESVDNYGLSFINWFQQKPGQPPRLLIYGTSNRGSGIPARFSGSGSGTDFTLTISSLEPEDFAVYFCQQSNEVPYTFGGGTKVEIK ?
7.18e-05

Please give the result for P1AE1690_Fab, humanized anti-FAP Fab VH1G2a/VL1G1a (Fab, V domains shown) VH: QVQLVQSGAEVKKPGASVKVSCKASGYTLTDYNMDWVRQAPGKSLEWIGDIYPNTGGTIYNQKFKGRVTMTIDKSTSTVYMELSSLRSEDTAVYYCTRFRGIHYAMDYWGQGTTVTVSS VL: EIVLTQSPATLSLSPGERATLSCRASESVDNYGLSFINWFQQKPGQAPRLLIYGTSNRGSGIPARFSGSGSGTDFTLTISSLEPEDFAVYFCQQSNEVPYTFGGGTKVEIK too.
6.3e-05

Please give the result for 4B9_Fab (Fab, V domains shown, Fab; also called anti-FAP 4B9 Fab) VH: EVQLLESGGGLVQPGGSLRLSCAASGFTFSSYAMSWVRQAPGKGLEWVSAIIGSGASTYYADSVKGRFTISRDNSKNTLYLQMNSLRAEDTAVYYCAKGWFGGFNYWGQGTLVTVSS VL: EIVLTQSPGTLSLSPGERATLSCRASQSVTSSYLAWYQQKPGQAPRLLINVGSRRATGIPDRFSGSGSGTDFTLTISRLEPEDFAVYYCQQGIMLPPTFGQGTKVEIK too.
0.000208

Please give the result for P1AE1689_Fab, humanized anti-FAP Fab VH1G1a/VL1G1a (Fab, V domains shown, also called FAP antibody 1G1a; H212) VH: QVQLVQSGAEVKKPGASVKVSCKASGYTLTDYNMDWVRQAPGQGLEWIGDIYPNTGGTIYNQKFKGRVTMTIDTSTSTVYMELSSLRSEDTAVYYCTRFRGIHYAMDYWGQGTTVTVSS VL: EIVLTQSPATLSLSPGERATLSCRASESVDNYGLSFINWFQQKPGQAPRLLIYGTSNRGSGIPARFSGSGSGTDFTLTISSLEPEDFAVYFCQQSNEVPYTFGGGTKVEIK too.
4.21e-05
